# runDescription: protein stability index of a GFP-peptide fusion (GPS, HEK-293T) (PSI 1-6); higher = more stable;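 also: 24-mer peptide tiles fused after GFP, lentivirally expressed, FACS-sorted into six equal bins by GFP/DsRed ratio, decoded by Illumina sequencing, PSI is the read-weighted mean bin number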
# experimentalParameters: treatment: MLN4924 1 uM, 8 h; c terminus: a fixed tail appended
propertyLabel: protein stability index

seqText	numericReadout
LSNQLAVTFREENTIAFRHLFLLG [MCOLN1]	2.5
DQFTQVFLESQGIELNPPEKMALD [EFHC1]	4.78
DRFLAGVPTPKSHLQLLGAVCMFL [CCND2]	2.27
DFPEDGLKIFTEDLPEVESLPRDR [VPS39]	5.39
VRNLFGLDPSSGAIHVLGPIDFEE [PCDHGC5]	2.33
QRFEVIEFDDGSGSVLRIQPLRTP [PTPRD]	2.99
FDGRHSQTLKAMVQAWPFTCLPLG [PRAME]	2.24
CTKTCGVGVRMRDVKCYQGTDIVR [ADAMTSL2]	2.65
VLTIALPVPVIVSNFNYFYHRETE [KCNA1]	3.06
LGETPENSNLEEPLNPKPHKKKSP [ZNF449]	5.47
STPRCAQQAALPRLSRRMASQHSY [CBY2]	2.37
DPGQDLVPKQAIQVQEADEAGWGG [DLX1]	5.22
LVQSSRSEVTELRRVLQGLEIELQ [KRT16]	3.08
MATPPFRLIRKMFSFKVSRWMGLA [CCDC70]	2.22
IAERLGCTLPQLAIAWCLRNEGVS [KCNAB2]	2.71
AHEYIFCFVLGFFYPVMLILFLVI [SOAT2]	3.03
RMQYAPDLMKRLRFALIPAPELVE [KLHL14]	2.05
TENRGNEKEFMKGNQLISNNIKFK [CLCN6]	4.52
IYQTLFLNGENSDIKICALGEEWS [GMCL1]	2.16
KIVEFNPMVLKGKIRPDSSRPELL [GLT8D2]	3.35
SSSLAQHQRKHAGEKPFECRQRLI [ZNF8]	3.69
NTKLRQAERLFENQLVGPESIAHI [APMAP]	3.42
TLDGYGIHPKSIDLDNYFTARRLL [NFE2L1]	2.28
AGPGAAEPLPVERDPAAGAAPFRF [ZNF511]	4.64
EDMEASDYELEDETRPAKRITITE [WEE1]	5.36
LGEEWSLHKIYLCQSGYFSSMFSG [GMCL1]	3.4
QTNSTKNSAAATSPKGTLPPAALE [CAMK2B]	5.22
EDEEPQEPNRLETGEAGEELDLRL [RTN2]	5.52
DPSSTKPGTLLKTSPSPERSLLLK [TRIM14]	4.67
YSGPPSPHGTLRVCTISSTGPLQP [PKD2L1]	2.83
ADNMLEYKSWLKNLAKEQLSRENI [PPEF2]	3.75
STPAPAERPLPNPEGLDSDFLAVL [SLA]	4.26
LTDVSPEPLQALLERASATLQDLV [PRAME]	3.33
GNGALSNISDLPFLAENSAFPKMA [LCOR]	3.49
GVHVRRTDKVGTEAAFHPIEEYMV [FUT8]	3.58
WAAKAPGASSREEPPEEPEQCPVI [SPDEF]	5.27
EMQQQMSLGELCHPVPLSFEPVKS [TRIM14]	4.05
PTQLRALNLTEGFAVLHWKPPQNP [TNXB]	3.04
RLDLAAVTLRRGLRSRASRCRPRS [FAM189A2]	3.89
AGSVFGGGFGGGVGGGFGGGFGGG [KRT15]	2.65
DLAEFAKKQPWWRKLFGQESGPSA [FUNDC2]	2.58
GGGSLSGGGGSRSISASSARFVSS [KRT15]	4.39
EAYTEHRPEITSRAINLLFDIARI [ZER1]	2.01

----------
# runDescription: protein stability index of a GFP-peptide fusion (GPS, HEK-293T) (PSI 1-6); higher = more stable
# experimentalParameters: treatment: DMSO; c terminus: a fixed tail appended
Some sequences, each annotated with its measured protein stability index.
propertyLabel: protein stability index

seqText	numericReadout
NKVELQAKVESMDQEIKFFRCLFE [KRT71]	2.52
NIMMPMGGMMPPGPGIPPLMPGMP [ZNF207]	2.87
CGYEGCRYGCGHRGCGDGCCCPSC [KRTAP19-2]	3.72
PSLHVVKVLLDCGADPDSRDFDNN [FEM1A]	3.46
NSHVYNGRTHQWKPLYPDDYVHIS [ADAMTSL2]	2.78
LRQFDLAWQYGPCTGITRLQRWCR [POLD4]	2.26
MGDEEKRNRAITARRQHLKSVMLQ [TNNI2]	4.06
LETMARNEVIADINCKGRSKSNLG [OSBPL1A]	4.46
VNCISPLKYFSDFRPYFTIHDSEF [DENND6A]	2.27
CTEILTEKKDTITNDSLSLKPSWF [MIA2]	3.23
AEGTPRSNHSAQDSAVENLLLLSK [IKZF1]	4.67
VLKTRMALRKTGQYSGMLDCARRI [SLC25A25]	2.53
LSNQLAVTFREENTIAFRHLFLLG [MCOLN1]	2.48
ERSRDVVDDVSVSLRLWDTFGDHH [RHOBTB2]	3.7
HGISIPEPEDMETLEEKFSDVHPV [CDKL4]	5.29
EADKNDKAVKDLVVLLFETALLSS [HSP90AB1]	2.13
LQPPHESRPQPIYYGFSESAESQG [ADAMTSL2]	4.18
LAATQGLAHMIAECKKLFQVPEEM [DLC1]	2.52
RWNKVKMVVSREEVELAYQEAMFN [SEPHS2]	2.62
HITKTVKGGISETRIEKRIVITGD [EPB41L3]	3.85
LQQLLVLQPEQQLNIYKTLKTHLI [CDS1]	2.4
MQATADSTKMDCVWSNWKSQAIDL [RTN1]	3.17
LINHKKAEDTEKKDEPSKYNQQQA [CEP70]	5.4
TPAEGDTEEDDGFVDILESDLKDD [CDC25B]	5.34

----------
# runDescription: protein stability index of a GFP-peptide fusion (GPS, HEK-293T) (PSI 1-6); higher = more stable
# experimentalParameters: treatment: DMSO; c terminus: a fixed tail appended
propertyLabel: protein stability index

seqText	numericReadout
REKGGKVLVHCEAGISRSPTICMA [DUSP5]	2.93
LHYFPFFLMGRVLYFHHYFPAMLF [POMT2]	3.09
CAYRTHLVAGIGFYQHLLLYIQSH [SMG5]	3.01

----------
# runDescription: protein stability index of a GFP-peptide fusion (GPS, HEK-293T) (PSI 1-6); higher = more stable
# experimentalParameters: treatment: MLN4924 1 uM, 8 h; c terminus: a fixed tail appended
Classify by measured protein stability index: true (1) if it is equal to or exceeds 3, false (0) if it is smaller.

seqText	answerLabel
KAVKYQSKARRKKIMIIICCVILG [STX1A]	false (0)
AAALLSNTTCQTENRLSVFFSVIF [PTGFR]	false (0)
NYPKGGLLDSMCPASTPSVLSSEQ [ETS2]	true (1)
FDPIVLLPCDLPKVVSRAENLSVP [LPCAT4]	false (0)
APHSQGEYDVYSTFQSHEPEFDYL [PPP2R2C]	true (1)
VDGVWTAQRPGITHGVGLVLRVEQ [SCNN1D]	false (0)
KSESSLPHQTSKMENLPGLASGPG	true (1)
AATQVFFALGLGFGGVIAFSSYNK [SLC6A17]	false (0)

----------
# runDescription: protein stability index of a GFP-peptide fusion (GPS, HEK-293T) (PSI 1-6); higher = more stable
# experimentalParameters: treatment: DMSO; c terminus: a fixed tail appended
propertyLabel: protein stability index

seqText	propertyLabel	numericReadout
KIVEFNPMVLKGKIRPDSSRPELL [GLT8D2]	protein stability index	3.09
IPSTQFDAAHPTNVQRLAEPSQML [CTNNB1]	protein stability index	4.24
LFPQWHLPIKIAAIIASLTFLYTL [STEAP1]	protein stability index	3.39
ASQPRGPALLFPATRGVPAKRLLD [TRIB1]	protein stability index	3.72
CDDSFTPQEKLWQQLRRGRYVEFN [CPOX]	protein stability index	3.08
LELLLDASALTLVLGGRRLRRAWF [SCNN1D]	protein stability index	2.94
PEGYNLKDEEGRLRDPATITTLRV [PPP2R2B]	protein stability index	4.54

----------
# runDescription: protein stability index of a GFP-peptide fusion (GPS, HEK-293T) (PSI 1-6); higher = more stable
# experimentalParameters: treatment: MLN4924 1 uM, 8 h; c terminus: a fixed tail appended

seqText	protein stability index
GPLLGTNGATDDSKTNLIVNYLPQ [ELAVL3]	3.92
EFFAVTRFLVGMMNGGMSLVAFVL [SLC22A15]	2.2
YEYDHWDAAIHGFRETEKSRWSEA [ALKBH7]	3.73
THLLKQGRSSMGTGLSGGKRPSQE [CRY1]	4.53
